# TEST_SYSTEM: BRM (Homo sapiens)
# Construct: made in house; host or cells: High Five insect cells
# Sequence (P51531 whole entry): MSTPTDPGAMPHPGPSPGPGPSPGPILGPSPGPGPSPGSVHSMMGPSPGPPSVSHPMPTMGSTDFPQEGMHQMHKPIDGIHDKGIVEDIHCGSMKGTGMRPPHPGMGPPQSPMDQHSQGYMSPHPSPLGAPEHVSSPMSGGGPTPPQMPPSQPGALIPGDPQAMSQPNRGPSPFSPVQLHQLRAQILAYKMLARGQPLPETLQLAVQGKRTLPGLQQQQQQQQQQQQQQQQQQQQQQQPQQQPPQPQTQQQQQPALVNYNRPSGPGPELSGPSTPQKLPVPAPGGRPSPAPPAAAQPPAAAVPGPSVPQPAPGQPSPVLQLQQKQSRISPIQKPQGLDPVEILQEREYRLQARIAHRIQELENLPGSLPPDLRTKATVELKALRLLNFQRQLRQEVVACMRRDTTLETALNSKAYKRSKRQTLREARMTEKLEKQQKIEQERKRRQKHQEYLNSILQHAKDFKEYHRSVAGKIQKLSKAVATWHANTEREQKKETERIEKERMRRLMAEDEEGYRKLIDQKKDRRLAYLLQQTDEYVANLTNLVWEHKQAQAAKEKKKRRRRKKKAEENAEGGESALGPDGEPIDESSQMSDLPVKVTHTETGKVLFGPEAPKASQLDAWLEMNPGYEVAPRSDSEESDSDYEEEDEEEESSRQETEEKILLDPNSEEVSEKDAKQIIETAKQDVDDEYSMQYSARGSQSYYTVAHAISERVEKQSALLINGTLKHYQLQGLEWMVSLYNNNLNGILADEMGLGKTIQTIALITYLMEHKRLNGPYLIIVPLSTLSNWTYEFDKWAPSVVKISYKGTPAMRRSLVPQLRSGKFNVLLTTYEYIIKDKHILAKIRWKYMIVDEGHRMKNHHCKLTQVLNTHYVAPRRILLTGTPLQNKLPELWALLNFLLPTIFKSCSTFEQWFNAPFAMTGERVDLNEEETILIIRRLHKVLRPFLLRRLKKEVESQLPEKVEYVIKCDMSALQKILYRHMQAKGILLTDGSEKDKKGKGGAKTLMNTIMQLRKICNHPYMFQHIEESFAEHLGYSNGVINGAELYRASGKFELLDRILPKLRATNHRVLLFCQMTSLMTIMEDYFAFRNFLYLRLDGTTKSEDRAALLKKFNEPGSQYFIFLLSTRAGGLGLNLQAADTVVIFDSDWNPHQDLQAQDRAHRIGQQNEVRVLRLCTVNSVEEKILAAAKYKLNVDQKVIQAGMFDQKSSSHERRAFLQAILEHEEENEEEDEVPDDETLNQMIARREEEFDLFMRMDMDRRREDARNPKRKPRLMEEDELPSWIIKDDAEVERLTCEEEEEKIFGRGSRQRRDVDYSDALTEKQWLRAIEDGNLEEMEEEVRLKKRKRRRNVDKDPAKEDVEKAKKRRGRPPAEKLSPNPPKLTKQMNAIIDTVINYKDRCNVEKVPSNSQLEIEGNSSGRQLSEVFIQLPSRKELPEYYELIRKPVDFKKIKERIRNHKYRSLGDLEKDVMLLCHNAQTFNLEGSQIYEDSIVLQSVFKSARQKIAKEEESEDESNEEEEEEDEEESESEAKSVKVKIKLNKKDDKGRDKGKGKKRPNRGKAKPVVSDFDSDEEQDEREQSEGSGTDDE
# ASSAY_COMMENT: ATPase catalytic activity assay (ADP-Glo), BRM
# Assay type: biochemical
# TEST_CONDITIONS: ATPase assay, selectivity BRG1/BRM, Table 10
READOUT_TYPE: Ratio (BRG1 IC50 (μM) divided by BRM IC50 (μM))

Some molecules with recorded Ratio (BRG1 IC50 (μM) divided by BRM IC50 (μM)):
[
  {
    "SMILES_REPRESENTATION": "C[C@@H]1CCN1c1cnc2c(c1)OCCN2c1ccc2cnc(CNC(=O)c3cc(Cl)c4c(c3)S(=O)(=O)[C@@H](F)CCO4)cc2n1",
    "ENDPOINT_VALUE": 22.18
  },
  {
    "SMILES_REPRESENTATION": "COc1cnc2c(c1)OCCN2c1ccc2cnc(CNC(=O)c3cc(F)c4c(c3)S(=O)(=O)[C@@H](F)CCO4)cc2c1",
    "ENDPOINT_VALUE": 13.92
  },
  {
    "SMILES_REPRESENTATION": "O=C(NCc1cc2nc(N3CCOc4cc(N5CC[C@H](F)C5)cnc43)ccc2cn1)c1cc(F)c2c(c1)S(=O)(=O)[C@@H](F)CCO2",
    "ENDPOINT_VALUE": 12.89
  },
  {
    "SMILES_REPRESENTATION": "C[C@@H]1CN(c2cccc(-c3ccc4cnc(CNC(=O)c5cc(Br)c6c(c5)S(=O)(=O)[C@@H](F)CCO6)cc4n3)n2)C[C@H](C)O1",
    "ENDPOINT_VALUE": 23.96
  },
  {
    "SMILES_REPRESENTATION": "COc1nc([C@@H](F)CF)ccc1-c1ccc2cnc(CNC(=O)c3cc(F)c4c(c3)S(=O)(=O)[C@@H](F)COC4)cc2n1",
    "ENDPOINT_VALUE": 20.83
  }
]

(a) C[C@@H]1CN(c2cccc(-c3ccc4cnc(CNC(=O)c5cc(C(F)F)c6c(c5)S(=O)(=O)[C@@H](F)CCO6)cc4n3)n2)C[C@H](C)O1
(b) C[C@H](NC(=O)c1cc(F)c2c(c1)S(=O)(=O)[C@@H](F)CCO2)c1cc2nc(N3CCOc4cc(N5CCC5)cnc43)ccc2cn1
Could you kindly indicate whether a or b has the higher Ratio (BRG1 IC50 (μM) divided by BRM IC50 (μM)) value? Mark your answer with the label of the selected entry.
b

(1) Cc1cc2c(-c3ccc4cnc(CNC(=O)c5cc(F)c6c(c5)S(=O)(=O)[C@@H](F)CCO6)cc4n3)ccnc2n1C
(2) COc1ccc(-c2ccc3cnc(CNC(=O)c4cc(Cl)c5c(c4)S(=O)(=O)[C@@H](F)COC5)cc3n2)nc1[C@@H]1CC1(F)F
Identify the item whose Ratio (BRG1 IC50 (μM) divided by BRM IC50 (μM)) is the smaller number: 1 or 2 Mark your answer with the label of the selected entry.
1
(1: 10.49, 2: 35.16)

(1) COc1cc2c(nc1C(F)F)N(c1ccc3cnc(CNC(=O)c4cc(F)c5c(c4)S(=O)(=O)[C@@H](F)CCO5)cc3n1)CCO2
(2) Cc1cc(C(=O)NCc2cc3nc(N4CCOc5cc(N6CC[C@H]6C)cnc54)ccc3cn2)cc2c1COC[C@H](F)S2(=O)=O
Identify the item whose Ratio (BRG1 IC50 (μM) divided by BRM IC50 (μM)) is the smaller number: 1 or 2 Mark your answer with the label of the selected entry.
1

(P) CCN(CC)c1cnc2c(c1)OCCN2c1ccc2cnc(CNC(=O)c3cc(F)c4c(c3)S(=O)(=O)[C@@H](F)COC4)cc2n1
(Q) O=C(NCc1cc2nc(-c3csnc3OC(F)F)ccc2cn1)c1cc(F)c2c(c1)S(=O)(=O)[C@@H](F)CCO2
Identify the item whose Ratio (BRG1 IC50 (μM) divided by BRM IC50 (μM)) is the smaller number: P or Q Mark your answer with the label of the selected entry.
P
(P: 12.76, Q: 19.80)
